Tested on: P-4E-BP1 (T37/46)
ASSAY: Cell based AlphaLISA assay, inhibition of P-4E-BP1 (T37/46) in MDA-MB-468 cells
RECORDED_CONDITIONS: Homo sapiens, 4 h, 0.017-1,000 nM, two to four hours at 37° C., AlphaLisa SureFire Ultra, read-out: pIC50 for Inhibition of mTORC1 and mTORC2 Substrate Phosphorylation, p-4E-BP1-(T37/46) (converted)
MEASURED_QUANTITY: IC50

CO[C@H]1C[C@@H]2CC[C@@H](C)[C@@](O)(O2)C(=O)C(=O)N2CCCC[C@H]2C(=O)O[C@H]([C@H](C)C[C@@H]2CC[C@@H](O)[C@H](OC)C2)C[C@@H](O)[C@H](C)/C=C(\C)[C@@H](O)[C@@H](OC)C(=NOCC(=O)NCCOCCOCCOCCOCCOCCOCCC(=O)N2CCc3cc(Cn4nc(-c5ccc6oc(N)nc6c5)c5c(N)ncnc54)ccc3C2)[C@H](C)C[C@H](C)/C=C/C=C/C=C/1C | < 3.16 nM

From here, focus on the item given below.
input: For the compound CO[C@H]1C[C@@H]2CC[C@@H](C)[C@@](O)(O2)C(=O)C(=O)N2CCCC[C@H]2C(=O)O[C@H]([C@H](C)C[C@@H]2CC[C@@H](O)[C@H](OC)C2)C[C@@H](O)[C@H](C)/C=C(\C)[C@@H](O)[C@@H](OC)C(=NOCC(=O)NCc2cnc(N3CCN(C(=O)CCOCCN4CCN(c5ncc(C(=O)N6CCc7cc(Cn8nc(-c9ccc%10oc(N)nc%10c9)c9c(N)ncnc98)ccc7C6)cn5)CC4)CC3)nc2)[C@H](C)C[C@H](C)/C=C/C=C/C=C/1C , what IC50 is on record?
output: 3.16 to 31.6 nM
